Tested on: TK-10
ASSAY INFO: NCI tumour cell line growth inhibition, 48 h
Active and inactive are the calls of the source. No stated cut-off is given here; in the data, active = GI50 up to about 1.1 µM and inactive = higher.

# COMPOUND, GI50
rows = [
    ("Cc1cc2ccccc2c[n+]1CC(O)C[n+]1cc2ccccc2cc1C", "> 100 µM (inactive)"),
    ("O=c1[nH]cnc2c(COCCCO)c[nH]c12", "> 100 µM (inactive)"),
    ("CC12C3C4C1C1C2C3C41CO (stereo not drawn)", "> 100 µM (inactive)"),
    ("CC1(C)O/C(=C\\c2ccccc2)C(=O)/C(=C/c2ccccc2)O1", "44.2 µM (inactive)"),
    ("O=C1C(Br)=C(Br)C(=O)c2ccc(=O)ccc21", "18.7 µM (inactive)"),
    ("CSC1(C)C(=O)Nc2c(OCc3ccccc3)cc([N+](=O)[O-])cc21 (stereo not drawn)", "> 100 µM (inactive)"),
    ("COc1ccc(-n2c(C)nc3ccc(NC4OC(COC(C)=O)C(OC(C)=O)C(OC(C)=O)C4OC(C)=O)cc3c2=O)cc1 (stereo not drawn)", "55.1 µM (inactive)"),
    ("CCOC(=O)c1ccc(Nc2nc3ccccc3nc2C(=O)OCC)cc1", "> 100 µM (inactive)"),
    ("NS(=O)(=O)c1cc2c(cc1Cl)N=C(CCC(=O)O)NS2(=O)=O", "> 100 µM (inactive)"),
    ("COC(=O)C(C(=O)C(=O)Nc1nc2ccc([N+](=O)[O-])cc2s1)c1nc2ccc(Cl)cc2nc1O (stereo not drawn)", "> 100 µM (inactive)"),
    ("O=C(O)C12C3CCC(C3)C1(C(=O)O)C1CCC2C1 (stereo not drawn)", "> 100 µM (inactive)"),
    ("CCCOc1ccc(/C=C/c2cc(OC)c(OC)c(OC)c2)cc1", "55.1 µM (inactive)"),
    ("O=C1/C(=C/c2ccc([N+](=O)[O-])cc2)Sc2scc(-c3cccc([N+](=O)[O-])c3)[n+]21", "5.18 µM (inactive)"),
    ("CNC(=O)NCNC(=O)NC", "> 100 µM (inactive)"),
    ("COC(=O)c1ccccc1C1CN=NC12Cc1c(C)cccc1C2=O (stereo not drawn)", "> 100 µM (inactive)"),
    ("Cc1cccc(N2C(=O)/C(=C/c3ccc(N(CCC#N)CCC#N)cc3C)N=C2c2cc([N+](=O)[O-])ccc2Cl)c1", "> 100 µM (inactive)"),
    ("Clc1ccc(CCn2ccc3ccccc32)c(Cl)c1", "> 100 µM (inactive)"),
    ("CN(C)CC(CO)(CN(C)C)CN(C)C", "> 100 µM (inactive)"),
    ("C/C(=N/OC(=O)c1cccc2c(=O)c3ccccc3[nH]c12)[C@H]1CC[C@H]2[C@@H]3CCC4=C/C(=N/OC(=O)c5cccc6c(=O)c7ccccc7[nH]c56)CC[C@]4(C)[C@H]3CC[C@]12C", "17.8 µM (inactive)"),
    ("CC1COS(=O)O1 (stereo not drawn)", "> 100 µM (inactive)"),
    ("O=C(N/C(=C\\c1ccc(Oc2ccc(Cl)c(Cl)c2)cc1)c1nc2ccccc2[nH]1)c1ccccc1", "26.1 µM (inactive)"),
    ("O=C1Oc2ccccc2C(=O)/C1=C\\NC(=S)c1ccncc1", "> 100 µM (inactive)"),
    ("CN1C2CCC1C(C(O)c1ccccc1[N+](=O)[O-])C(=O)C2 (stereo not drawn)", "> 100 µM (inactive)"),
    ("CC/N=C(\\N)CSS(=O)(=O)O", "> 100 µM (inactive)"),
    ("O=C(c1ccco1)N(C(=S)N1CCN(c2ccccc2)CC1)c1ccccc1", "> 100 µM (inactive)"),
    ("CN(C)/C=C/c1ccnc2c1C(=O)c1ccccc1C2=O", "> 92.7 µM (inactive)"),
    ("CCSC1=N/C(=C\\c2ccco2)C(Cl)=N1", "> 100 µM (inactive)"),
    ("CC(C)(C)C(=O)N(C(=S)OCc1ccccn1)c1ccccc1", "> 100 µM (inactive)"),
    ("c1ccc2c(c1)nnn2CNc1ccc(N2CCCCC2)cc1", "> 100 µM (inactive)"),
    ("COc1ccc2c(c1)OC[C@@H]1c3cc(O)c(OCc4ccccc4)cc3O[C@H]21", "32.7 µM (inactive)"),
    ("CC(C)(C)[C@H]1NC(=O)CN1C(=O)OCc1ccccc1", "> 100 µM (inactive)"),
    ("COc1ccc(-c2ncnc(-c3ccc(OC)c(OC)c3)n2)cc1OC", "> 100 µM (inactive)"),
    ("CCCCCCCCCCC(C)CCCCCCC(=O)OCC(COP(=O)([O-])OCC[N+](C)(C)C)OC(=O)CCCCCCC(C)CCCCCCCCCC (stereo not drawn)", "> 100 µM (inactive)"),
    ("CC1(CO)COS(=O)OC1 (stereo not drawn)", "> 100 µM (inactive)"),
    ("Clc1cccc(/C=c2\\nc(-c3ccccc3)n3c2nc2ccccc23)c1", "87.1 µM (inactive)"),
    ("CC1=NC(=O)CNN1C1=NNC2(C(=O)N1)c1ccccc1-c1ccccc12", "> 100 µM (inactive)"),
    ("COc1ccc(C(=O)c2c3cc(OC)c(OC)c(OC)c3cc[n+]2C)cc1", "46.5 µM (inactive)"),
    ("CC(=O)c1[nH]c(Nc2ccc(C)cc2)c(C(=S)Nc2ccccc2)c1N", "17.3 µM (inactive)"),
]
